Here, each record is paired with measured binding signal data.
test_target: GST-NbGlk1(82-244) (Nicotiana benthamiana)
Chain: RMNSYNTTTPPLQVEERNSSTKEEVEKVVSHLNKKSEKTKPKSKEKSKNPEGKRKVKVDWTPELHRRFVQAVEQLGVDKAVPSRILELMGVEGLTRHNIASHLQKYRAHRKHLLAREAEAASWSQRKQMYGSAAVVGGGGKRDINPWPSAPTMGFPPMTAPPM
method_description: protein-binding microarray; high values mean tight binding
study_conditions: protein: recombinant; tags: GST (pTH6838); dsDNA, one strand shown
The full ranking holds about 16,000 sequences; the median of “e-score” is about -0.044, and the highest 2% start at about 0.38. This excerpt belongs to a sample that is enriched for the highest values.
endpoint: binding signal (E-score)

[[record]]
polymer_sequence = "ATTTTGGG"
endpoint = "binding signal"
reported_measurement = 0.261

[[record]]
polymer_sequence = "ATCTCGTG"
endpoint = "binding signal"
reported_measurement = 0.357

[[record]]
polymer_sequence = "AATCTGAA"
endpoint = "binding signal"
reported_measurement = 0.444

[[record]]
polymer_sequence = "ATCGGCAA"
endpoint = "binding signal"
reported_measurement = 0.216

[[record]]
polymer_sequence = "ATCGGAGA"
endpoint = "binding signal"
reported_measurement = 0.249

[[record]]
polymer_sequence = "AGATATCT"
endpoint = "binding signal"
reported_measurement = 0.48

[[record]]
polymer_sequence = "AATCGATC"
endpoint = "binding signal"
reported_measurement = 0.26

[[record]]
polymer_sequence = "ATTCTATA"
endpoint = "binding signal"
reported_measurement = 0.284

[[record]]
polymer_sequence = "ACCGATAT"
endpoint = "binding signal"
reported_measurement = 0.364

[[record]]
polymer_sequence = "AATCGATG"
endpoint = "binding signal"
reported_measurement = 0.268

[[record]]
polymer_sequence = "AACCGGAT"
endpoint = "binding signal"
reported_measurement = 0.233

[[record]]
polymer_sequence = "ATAAGGAT"
endpoint = "binding signal"
reported_measurement = 0.22

[[record]]
polymer_sequence = "ATCCGTTG"
endpoint = "binding signal"
reported_measurement = 0.233

[[record]]
polymer_sequence = "ATATCTGG"
endpoint = "binding signal"
reported_measurement = 0.401

[[record]]
polymer_sequence = "ATTATTCC"
endpoint = "binding signal"
reported_measurement = 0.252


###

test_target: GST-NbGlk1(82-244) (Nicotiana benthamiana)
Chain: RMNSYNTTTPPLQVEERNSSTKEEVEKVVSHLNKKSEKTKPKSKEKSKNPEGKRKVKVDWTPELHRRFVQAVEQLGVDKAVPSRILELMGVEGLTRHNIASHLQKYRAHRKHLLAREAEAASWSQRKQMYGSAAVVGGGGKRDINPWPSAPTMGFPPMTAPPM
method_description: protein-binding microarray; high values mean tight binding
study_conditions: protein: recombinant; tags: GST (pTH6838); dsDNA, one strand shown
Over roughly 16,000 sequences, “e-score” has its median near -0.044; the highest 2% begin near 0.38. The sample holds the highest values, similar sequences and a random draw of the others, so the mix is not that of the screen.
endpoint: binding signal (E-score)

[[record]]
polymer_sequence = "AATCTTTA"
test_target = "GST-NbGlk1(82-244) (Nicotiana benthamiana)"
reported_measurement = 0.352

[[record]]
polymer_sequence = "ATATTATA"
test_target = "GST-NbGlk1(82-244) (Nicotiana benthamiana)"
reported_measurement = 0.279

[[record]]
polymer_sequence = "ATCCTCCA"
test_target = "GST-NbGlk1(82-244) (Nicotiana benthamiana)"
reported_measurement = 0.285

[[record]]
polymer_sequence = "AATATTTG"
test_target = "GST-NbGlk1(82-244) (Nicotiana benthamiana)"
reported_measurement = 0.253

[[record]]
polymer_sequence = "AATCTTGC"
test_target = "GST-NbGlk1(82-244) (Nicotiana benthamiana)"
reported_measurement = 0.348

[[record]]
polymer_sequence = "AATCCTGT"
test_target = "GST-NbGlk1(82-244) (Nicotiana benthamiana)"
reported_measurement = 0.371

[[record]]
polymer_sequence = "ATATTAGA"
test_target = "GST-NbGlk1(82-244) (Nicotiana benthamiana)"
reported_measurement = 0.212

[[record]]
polymer_sequence = "ATCGAATA"
test_target = "GST-NbGlk1(82-244) (Nicotiana benthamiana)"
reported_measurement = 0.235

[[record]]
polymer_sequence = "AATCCGGA"
test_target = "GST-NbGlk1(82-244) (Nicotiana benthamiana)"
reported_measurement = 0.42

[[record]]
polymer_sequence = "ACGTATAA"
test_target = "GST-NbGlk1(82-244) (Nicotiana benthamiana)"
reported_measurement = 0.241

[[record]]
polymer_sequence = "AATCTTTC"
test_target = "GST-NbGlk1(82-244) (Nicotiana benthamiana)"
reported_measurement = 0.387

[[record]]
polymer_sequence = "ATCCCTTA"
test_target = "GST-NbGlk1(82-244) (Nicotiana benthamiana)"
reported_measurement = 0.215

[[record]]
polymer_sequence = "ATCTAGAG"
test_target = "GST-NbGlk1(82-244) (Nicotiana benthamiana)"
reported_measurement = 0.238

[[record]]
polymer_sequence = "AATCCGTA"
test_target = "GST-NbGlk1(82-244) (Nicotiana benthamiana)"
reported_measurement = 0.337

[[record]]
polymer_sequence = "ATCTGCGA"
test_target = "GST-NbGlk1(82-244) (Nicotiana benthamiana)"
reported_measurement = 0.35

[[record]]
polymer_sequence = "AATTTCAT"
test_target = "GST-NbGlk1(82-244) (Nicotiana benthamiana)"
reported_measurement = 0.238

[[record]]
polymer_sequence = "AATCTTTG"
test_target = "GST-NbGlk1(82-244) (Nicotiana benthamiana)"
reported_measurement = 0.378

[[record]]
polymer_sequence = "AATCTGCT"
test_target = "GST-NbGlk1(82-244) (Nicotiana benthamiana)"
reported_measurement = 0.37

[[record]]
polymer_sequence = "ATCTAACC"
test_target = "GST-NbGlk1(82-244) (Nicotiana benthamiana)"
reported_measurement = 0.266

[[record]]
polymer_sequence = "ATTTCCCG"
test_target = "GST-NbGlk1(82-244) (Nicotiana benthamiana)"
reported_measurement = 0.309

[[record]]
polymer_sequence = "AATCATGT"
test_target = "GST-NbGlk1(82-244) (Nicotiana benthamiana)"
reported_measurement = 0.304

[[record]]
polymer_sequence = "CACCGATA"
test_target = "GST-NbGlk1(82-244) (Nicotiana benthamiana)"
reported_measurement = 0.256

[[record]]
polymer_sequence = "AATCTGAT"
test_target = "GST-NbGlk1(82-244) (Nicotiana benthamiana)"
reported_measurement = 0.414

[[record]]
polymer_sequence = "ACTGCAAT"
test_target = "GST-NbGlk1(82-244) (Nicotiana benthamiana)"
reported_measurement = 0.211

[[record]]
polymer_sequence = "ACCAAAGA"
test_target = "GST-NbGlk1(82-244) (Nicotiana benthamiana)"
reported_measurement = 0.208

[[record]]
polymer_sequence = "AATAATAT"
test_target = "GST-NbGlk1(82-244) (Nicotiana benthamiana)"
reported_measurement = 0.259

[[record]]
polymer_sequence = "AGAATTTA"
test_target = "GST-NbGlk1(82-244) (Nicotiana benthamiana)"
reported_measurement = 0.222


###

Here, each record is paired with measured binding signal data.
test_target: GST-NbGlk1(82-244) (Nicotiana benthamiana)
Chain: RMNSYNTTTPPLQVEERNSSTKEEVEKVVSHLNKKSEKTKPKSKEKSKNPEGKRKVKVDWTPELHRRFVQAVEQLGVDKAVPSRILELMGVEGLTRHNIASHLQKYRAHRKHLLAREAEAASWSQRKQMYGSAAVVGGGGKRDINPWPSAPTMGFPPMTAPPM
method_description: protein-binding microarray; NbGlk1 is a Golden2-like transcription factor of Nicotiana benthamiana; high values mean tight binding
study_conditions: protein: recombinant; tags: GST (pTH6838); dsDNA, one strand shown
The full ranking holds about 16,000 sequences; the median of “e-score” is about -0.044, and the highest 2% start at about 0.38. This is one part of a sample in which the highest values are shown more often than they occur.
endpoint: binding signal (E-score)

[[record]]
polymer_sequence = "AGATTATG"
reported_measurement = 0.35

[[record]]
polymer_sequence = "ATAGTAGA"
reported_measurement = 0.201

[[record]]
polymer_sequence = "ATATTACA"
reported_measurement = 0.281

[[record]]
polymer_sequence = "AATCTCGC"
reported_measurement = 0.411

[[record]]
polymer_sequence = "ATGTAATC"
reported_measurement = 0.462

[[record]]
polymer_sequence = "AGGGAGAT"
reported_measurement = 0.281

[[record]]
polymer_sequence = "AAATCCTG"
reported_measurement = 0.422

[[record]]
polymer_sequence = "ATTCTCGG"
reported_measurement = 0.229

[[record]]
polymer_sequence = "ACGCGTAT"
reported_measurement = 0.211

[[record]]
polymer_sequence = "ATCGCGAT"
reported_measurement = 0.424

[[record]]
polymer_sequence = "AAATTCTG"
reported_measurement = 0.235

[[record]]
polymer_sequence = "ATTAAATC"
reported_measurement = 0.217

[[record]]
polymer_sequence = "AAAATACG"
reported_measurement = 0.286

[[record]]
polymer_sequence = "AGAATCAC"
reported_measurement = 0.373

[[record]]
polymer_sequence = "AGAGAATA"
reported_measurement = 0.243

[[record]]
polymer_sequence = "ATATTCTG"
reported_measurement = 0.342

[[record]]
polymer_sequence = "AGGAAATC"
reported_measurement = 0.489

[[record]]
polymer_sequence = "AATCACGG"
reported_measurement = 0.256

[[record]]
polymer_sequence = "AAATTCTC"
reported_measurement = 0.283

[[record]]
polymer_sequence = "AAATTTCA"
reported_measurement = 0.229

[[record]]
polymer_sequence = "AAAATCCG"
reported_measurement = 0.446

[[record]]
polymer_sequence = "AATCTCGT"
reported_measurement = 0.436

[[record]]
polymer_sequence = "CAAATCCG"
reported_measurement = 0.389

[[record]]
polymer_sequence = "CAATCCAG"
reported_measurement = 0.291

[[record]]
polymer_sequence = "ATACAAAA"
reported_measurement = 0.251

[[record]]
polymer_sequence = "ATCTAATC"
reported_measurement = 0.331

[[record]]
polymer_sequence = "AGATTCTG"
reported_measurement = 0.469

[[record]]
polymer_sequence = "ATCGCAGA"
reported_measurement = 0.23

[[record]]
polymer_sequence = "AAGAAAAT"
reported_measurement = 0.34

[[record]]
polymer_sequence = "ACTAAATC"
reported_measurement = 0.213

[[record]]
polymer_sequence = "ACAATCCA"
reported_measurement = 0.333

[[record]]
polymer_sequence = "ACGTAATC"
reported_measurement = 0.476

[[record]]
polymer_sequence = "ATTTTTAA"
reported_measurement = 0.221

[[record]]
polymer_sequence = "AGATTTCC"
reported_measurement = 0.497

[[record]]
polymer_sequence = "ATATTGGA"
reported_measurement = 0.241

[[record]]
polymer_sequence = "AATCACGA"
reported_measurement = 0.339

[[record]]
polymer_sequence = "ATCGTAAC"
reported_measurement = 0.244

[[record]]
polymer_sequence = "AGATTACA"
reported_measurement = 0.477

[[record]]
polymer_sequence = "AGATCCTC"
reported_measurement = 0.387

[[record]]
polymer_sequence = "AGAGAAAT"
reported_measurement = 0.241

[[record]]
polymer_sequence = "ATCCTCCG"
reported_measurement = 0.257

[[record]]
polymer_sequence = "ACGTAATA"
reported_measurement = 0.285

[[record]]
polymer_sequence = "ATAGATCC"
reported_measurement = 0.21

[[record]]
polymer_sequence = "ACAGAATC"
reported_measurement = 0.454

[[record]]
polymer_sequence = "CAATCCAA"
reported_measurement = 0.298

[[record]]
polymer_sequence = "ATTCTCGA"
reported_measurement = 0.308

[[record]]
polymer_sequence = "ATTCCCTG"
reported_measurement = 0.323

[[record]]
polymer_sequence = "AATCGCGT"
reported_measurement = 0.352

[[record]]
polymer_sequence = "AAATTACA"
reported_measurement = 0.281

[[record]]
polymer_sequence = "AATCCCAC"
reported_measurement = 0.318

[[record]]
polymer_sequence = "ACAGATCC"
reported_measurement = 0.234

[[record]]
polymer_sequence = "AGGAAATA"
reported_measurement = 0.239

[[record]]
polymer_sequence = "AAATCGTT"
reported_measurement = 0.248

[[record]]
polymer_sequence = "AGATCCAA"
reported_measurement = 0.262

[[record]]
polymer_sequence = "AAAATCCA"
reported_measurement = 0.454

[[record]]
polymer_sequence = "AGATCCTG"
reported_measurement = 0.369

[[record]]
polymer_sequence = "AATCACGT"
reported_measurement = 0.304

[[record]]
polymer_sequence = "AAGTAGAT"
reported_measurement = 0.216

[[record]]
polymer_sequence = "ATTCCTTG"
reported_measurement = 0.228

[[record]]
polymer_sequence = "ATCCTTTG"
reported_measurement = 0.201

[[record]]
polymer_sequence = "ACATAATC"
reported_measurement = 0.327

[[record]]
polymer_sequence = "ATTACGTA"
reported_measurement = 0.354

[[record]]
polymer_sequence = "ATTCTCTA"
reported_measurement = 0.306

[[record]]
polymer_sequence = "AAATTTCC"
reported_measurement = 0.305

[[record]]
polymer_sequence = "ATATTCTA"
reported_measurement = 0.25

[[record]]
polymer_sequence = "AACGCAAT"
reported_measurement = 0.344

[[record]]
polymer_sequence = "AAATCCTA"
reported_measurement = 0.417

[[record]]
polymer_sequence = "AATCGCGC"
reported_measurement = 0.311

[[record]]
polymer_sequence = "AAATTACG"
reported_measurement = 0.317

[[record]]
polymer_sequence = "ATCGTGTA"
reported_measurement = 0.262

[[record]]
polymer_sequence = "ACGAAATC"
reported_measurement = 0.477

[[record]]
polymer_sequence = "AGGTAATC"
reported_measurement = 0.416

[[record]]
polymer_sequence = "AAATTTTC"
reported_measurement = 0.273

[[record]]
polymer_sequence = "AAATTACC"
reported_measurement = 0.252

[[record]]
polymer_sequence = "CAATCGGA"
reported_measurement = 0.227

[[record]]
polymer_sequence = "AAATCCAG"
reported_measurement = 0.413

[[record]]
polymer_sequence = "ATTTTTTG"
reported_measurement = 0.315

[[record]]
polymer_sequence = "ATCGCGAG"
reported_measurement = 0.33

[[record]]
polymer_sequence = "ACGAAAAT"
reported_measurement = 0.272

[[record]]
polymer_sequence = "AGTGCGAT"
reported_measurement = 0.313

[[record]]
polymer_sequence = "ATTACGGA"
reported_measurement = 0.366

[[record]]
polymer_sequence = "ATGGCAAT"
reported_measurement = 0.237

[[record]]
polymer_sequence = "AAATCAAG"
reported_measurement = 0.318

[[record]]
polymer_sequence = "AAGTAATC"
reported_measurement = 0.337

[[record]]
polymer_sequence = "AGGAAAAT"
reported_measurement = 0.226

[[record]]
polymer_sequence = "ACCAAGAT"
reported_measurement = 0.289

